The reported numbers originate from PubChem BioAssay (EPA / NIEHS).

read-out: E-selectin (Homo sapiens) (UniProt P16581); test: BSK_LPS_Eselectin: BioMAP Diversity Plus: LPS Assay for Eselectin Biomarker Activity (AID 2283077); settings: primary human HUVEC with PBMC; actives raise or lower the signal
Sequence (P16581 whole entry, looked up): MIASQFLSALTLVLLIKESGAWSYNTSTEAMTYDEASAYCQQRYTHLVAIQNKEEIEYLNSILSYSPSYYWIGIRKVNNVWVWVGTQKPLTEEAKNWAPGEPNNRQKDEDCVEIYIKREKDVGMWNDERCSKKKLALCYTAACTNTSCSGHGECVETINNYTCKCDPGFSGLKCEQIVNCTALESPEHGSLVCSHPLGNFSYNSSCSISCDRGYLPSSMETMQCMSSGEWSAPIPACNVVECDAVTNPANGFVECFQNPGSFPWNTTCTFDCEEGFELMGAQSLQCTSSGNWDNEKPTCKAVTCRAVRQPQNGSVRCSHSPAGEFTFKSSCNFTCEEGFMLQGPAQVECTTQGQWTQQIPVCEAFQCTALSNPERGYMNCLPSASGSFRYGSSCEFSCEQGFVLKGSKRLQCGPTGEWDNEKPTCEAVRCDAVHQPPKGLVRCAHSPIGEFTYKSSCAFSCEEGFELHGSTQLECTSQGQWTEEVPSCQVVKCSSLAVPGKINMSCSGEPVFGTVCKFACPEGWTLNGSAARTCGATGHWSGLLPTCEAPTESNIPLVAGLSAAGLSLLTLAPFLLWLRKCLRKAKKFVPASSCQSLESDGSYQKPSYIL
Calls of active or inactive are those of the source. The calls were made as follows: active = hit-call score of the fitted dose curve at least 0.9, where 1 is the maximum; inactive = score below 0.9.
// allowed return values: active, inactive

COMPOUND	CLASS_NAME
Fc1ccccc1[C@@H](F)COC1CCC(Nc2ncnc3[nH]ncc23)CC1 (stereo partly specified)	active
Cc1ccc(C)c(O)c1	inactive
NC(=O)NO	inactive
COc1ccc2sc(C(=O)Nc3nnn[nH]3)c(OC(C)C)c2c1	active
CC1=CC(=O)CC(C)(C)C1	inactive

From here, focus on the item given below.
Outcome logged for "CC(C)=CCC/C(C)=C\CO" in this assay:
inactive

====

Read-out: Monocyte Chemoattractant Protein-1 (MCP1), CCL2 (gene 6347)
Assay: BSK_SAg_MCP1: BioMAP Diversity Plus: SAg Assay for Monocyte Chemoattractant Protein-1 (MCP1) Biomarker Activity (AID 2283090)
Settings: primary human HUVEC with PBMC; actives raise or lower the signal
Description: BSK_SAg is a cell-based, multiplexed-readout assay that uses umbilical vein endothelium and peripheral blood mononuclear cells, a human vascular primary cell co-culture, with measurements taken at 24 hours after chemical dosing in a 96-well plate.BSK_SAg_MCP1 is an assay component measured in the BSK_SAg assay. It measures MCP-1 antibody related to regulation of gene expression using ELISA technology.Data from the assay component BSK_SAg_MCP1 was analyzed into 1 assay endpoint. […]
Calls of active or inactive are those of the source. The calls were made as follows: active = hit-call score of the fitted dose curve at least 0.9, where 1 is the maximum; inactive = score below 0.9.
Lab note: assign the record to one of active, inactive

Below are worked cases with known answers.
COMPOUND	CLASS_NAME
CC(C)CCCCCCOC(=O)c1ccc(C(=O)OCCCCCCC(C)C)c(C(=O)OCCCCCCC(C)C)c1	inactive
C1N2CN3CN1CN(C2)C3	inactive
O=C(CCCCCCCCc1cccnc1)N1CCC(C=C(c2ccccc2)c2ccccc2)CC1	active
CC(C)=CCCC(C)CCO (stereo not drawn)	inactive
CCCCCCCCCCCCCCCO	active

In this assay, the call recorded for "COC(=O)c1ccccc1O" was what?
inactive

Same thing, different compound: "O=P(OC(CCl)CCl)(OC(CCl)CCl)OC(CCl)CCl"
active

Also, "CC[C@H]1OC(=O)[C@H](C)[C@@H](O[C@H]2C[C@@](C)(OC)[C@@H](O)[C@H](C)O2)[C@H](C)[C@@H](O[C@@H]2O[C@H](C)C[C@H](N(C)C)[C@H]2O)[C@](C)(O)C[C@@H](C)C(=O)[C@H](C)[C@@H](O)[C@]1(C)O" please.
inactive

Cool, now "CC(=O)c1ccc2c(c1)[C@H](NC(=O)c1ccc(F)cc1)[C@@H](O)C(C)(C)O2"
inactive

Proceed to "Cn1c(=O)cc(Oc2ccc(F)cc2F)c2cnc(NCC(C)(C)O)nc21"
inactive

Similarly, "CCOCCOCCOCCO" ?
inactive

Also "COc1ccc2sc(C(=O)Nc3nnn[nH]3)c(OC(C)C)c2c1" , if possible.
active

And "CC[C@H]1CC[C@H](NCc2cc3c(cc2OC)[C@H]2C[C@H]2C(=O)N3C)[C@H](c2ccccc2)N1" ?
inactive

Could you do the same for "O=C(O)c1cccc(Oc2ccccc2)c1" , please?
inactive

Try the compound "Cc1ccc(N)cc1O"
inactive

Param item: "CCn1nc(Cc2ccccc2)cc1C1CCN(C[C@H]2C[C@H](N(C)[C@@H](C(=O)O)C(C)C)C[C@@H]2c2cccc(F)c2)CC1"
inactive

Quick one: "CN(C)c1ccc(Cc2ccc(N(C)C)cc2)cc1"
inactive

Next record, please: "CC(=O)OC[C@H]1O[C@@](COC(C)=O)(O[C@H]2O[C@H](COC(C)=O)[C@@H](OC(C)=O)[C@H](OC(C)=O)[C@H]2OC(C)=O)[C@@H](OC(C)=O)[C@@H]1OC(C)=O"
inactive

====

read-out: Interferon-gamma inducible Protein 10 (IP10), CXCL10 (gene 3627); test: BSK_KF3CT_IP10: BioMAP Diversity Plus: KF3CT Assay for Interferon-gamma inducible Protein 10 (IP10) Biomarker Activity (AID 2283068); details: primary human keratinocytes with fibroblasts; actives raise or lower the signal
Active and inactive are the calls of the source. The calls were made as follows: active = hit-call score of the fitted dose curve at least 0.9, where 1 is the maximum; inactive = score below 0.9.
Assign a class; possible classes are YES (active), NO (inactive)

For orientation, consider the following solved cases.
COMPOUND	CLASS_NAME
O=C(NS(=O)(=O)/C=C/c1ccccc1)c1ccc(F)cc1Cl	NO
COC(=O)CC(=O)OC	NO
O=C(O)CCN(C1(C(=O)NO)CCCC1)S(=O)(=O)c1ccc(Oc2ccc(F)cc2)cc1	NO
CCCCC(CC)COC(=O)c1ccc(C(=O)OCC(CC)CCCC)cc1 (stereo not drawn)	NO
CC(C)=CCCC(C)CCO (stereo not drawn)	NO
COc1ccc(-n2nc(C(F)F)cc2-c2ccc(S(C)=O)cc2)cc1 (stereo not drawn)	NO
NC(=O)NO	NO
O=C(O)c1cccc(Oc2ccccc2)c1	NO
COCCOc1cc2cc(C(=O)NC3CCN(C(C)C)CC3)n(CC(=O)Nc3ccc(Cl)cn3)c2cn1	NO
C1N2CN3CN1CN(C2)C3	NO

Lab log entry: "CN(C)c1ccc(N=NS(=O)(=O)O)cc1" — outcome as called in the assay?
NO

Same question for "On1ccccc1=S" please.
YES

Then O=c1n(CC2CO2)c(=O)n(CC2CO2)c(=O)n1CC1CO1 (stereo not drawn) ?
NO

What do you have for "Nc1ccc(Nc2ccccc2)cc1" ?
NO

Note, next up: O=C(O)CC(O)C(=O)O (stereo not drawn)
NO

Can you check "CC(C)=CCC/C(C)=C\CO" next?
NO

Now this one: Fc1ccccc1[C@@H](F)COC1CCC(Nc2ncnc3[nH]ncc23)CC1 (stereo partly drawn)
NO

====

read-out: ABC Transporter (ABCB1), ABCB1 (gene 5243); experiment: LTEA_HepaRG_ABCB1: Life Technologies and Expression Analysis (LTEA) Assay for ABC Transporter (ABCB1) using HepaRG (AID 2283460); conditions: mRNA level, 48 h; actives raise or lower the signal
The source made the active and inactive calls. How the source made its calls: active means hit-call score of the fitted dose curve at least 0.9, where 1 is the maximum; inactive means score below 0.9.
Hello, when you answer, please use one of the following outcomes: active, inactive

Field: example entries. Status: answers known.
COMPOUND	CLASS_NAME
COCCOc1cc2cc(C(=O)NC3CCN(C(C)C)CC3)n(CC(=O)Nc3ccc(Cl)cn3)c2cn1	active
CC[C@H](C)C(=O)O[C@H]1C[C@@H](C)C=C2C=C[C@H](C)[C@H](CC[C@@H]3C[C@@H](O)CC(=O)O3)[C@H]21	active
CC(C)(O)c1coc(S(=O)(=O)NC(=O)Nc2c3c(cc4c2CCC4)CCC3)c1	inactive
CCCCC(CC)COC(=O)c1ccc(C(=O)OCC(CC)CCCC)cc1 (stereo unspecified)	inactive
CC[C@H]1CC[C@H](NCc2cc3c(cc2OC)[C@H]2C[C@H]2C(=O)N3C)[C@H](c2ccccc2)N1	inactive
CCOC(=O)CC(CC(=O)OCC)(OC(C)=O)C(=O)OCC	inactive
Clc1nc(Cl)c(Cl)c(Cl)c1Cl	inactive
CC(=O)OC[C@H]1O[C@@](COC(C)=O)(O[C@H]2O[C@H](COC(C)=O)[C@@H](OC(C)=O)[C@H](OC(C)=O)[C@H]2OC(C)=O)[C@@H](OC(C)=O)[C@@H]1OC(C)=O	inactive
CC(O)CN(CCN(CC(C)O)CC(C)O)CC(C)O (stereo unspecified)	inactive
Fc1ccccc1[C@@H](F)COC1CCC(Nc2ncnc3[nH]ncc23)CC1 (stereo partly specified)	active

As a next step, examine the compound that follows.
Please indicate how the test categorized "CC(C)=CCCC(C)=CC=O" .
inactive

====

read-out: CD40, CD40 (gene 958); assay: BSK_LPS_CD40: BioMAP Diversity Plus: LPS Assay for CD40 Biomarker Activity (AID 2283076); conditions: primary human HUVEC with PBMC; actives raise or lower the signal
Activity calls are given as the source filed them. Rule for the calls: active = hit-call score of the fitted dose curve at least 0.9, where 1 is the maximum; inactive = score below 0.9.
Field 'call' accepts yes (active), no (inactive)

ENTRY_SMILES	CLASS_NAME
CC(=O)OCCC(C)C	no
CC(=O)OC[C@H]1O[C@@](COC(C)=O)(O[C@H]2O[C@H](COC(C)=O)[C@@H](OC(C)=O)[C@H](OC(C)=O)[C@H]2OC(C)=O)[C@@H](OC(C)=O)[C@@H]1OC(C)=O	no

For "CC(C)=CCC/C(C)=C/CO" , what call appears in the results of this test?
no

"CC(C)(O)c1coc(S(=O)(=O)NC(=O)Nc2c3c(cc4c2CCC4)CCC3)c1" ?
no

What about "CC(C)CCCCCCCOC(=O)CCCCC(=O)OCCCCCCCC(C)C" ?
no

Same question for "O=C(O)c1cccc(Oc2ccccc2)c1" please.
no

Moving on to "COc1cccc(-c2ccc(/C=C\CN3CCCCCC3)cc2Cl)c1"
yes
